# assay explanation: Catalytical constant (app Km)of the compound was evaluated at pH 7.5
# Type: ADME
# test settings: read-out: Km app
Entries and their measured Km follow.

molecule: CCc1cc(=O)[nH]c(=O)n1C1O[C@H](CO)[C@@H](O)[C@H]1O (some centres undefined)
unit name: µM
Km: 1200
//
molecule: O=c1cc(CO)n(C2O[C@H](CO)[C@@H](O)[C@H]2O)c(=O)[nH]1 (some centres undefined)
unit name: µM
Km: 476
//
molecule: CCCc1cc(=O)[nH]c(=O)n1C1O[C@H](CO)[C@@H](O)[C@H]1O (some centres undefined)
unit name: µM
Km: 1150
//
molecule: O=c1cc(CF)n(C2O[C@H](CO)[C@@H](O)[C@H]2O)c(=O)[nH]1 (some centres undefined)
unit name: µM
Km: 300

###

Entries and their measured Vmax follow.
# assay explanation: Catalytical constant (Vmax) was evaluated
# Type: ADME
measured attribute: Vmax

compound: O=c1cc(CO)n(C2O[C@H](CO)[C@@H](O)[C@H]2O)c(=O)[nH]1 (stereo partly drawn)
assay value: 254 uM min-1 (mg of protein)-1
--
compound: O=c1[nH]c(=O)n([C@@H]2O[C@H](CO)[C@@H](O)[C@H]2O)cc1F
assay value: 323 uM min-1 (mg of protein)-1
--
compound: Cc1c(F)c(=O)[nH]c(=O)n1C1O[C@H](CO)[C@@H](O)[C@H]1O (stereo partly drawn)
assay value: 67 uM min-1 (mg of protein)-1
--
compound: O=c1cc(CF)n(C2O[C@H](CO)[C@@H](O)[C@H]2O)c(=O)[nH]1 (stereo partly drawn)
assay value: 297 uM min-1 (mg of protein)-1
--
compound: O=c1[nH]c(=O)n(C2O[C@H](CO)[C@@H](O)[C@H]2O)c(CO)c1F (stereo partly drawn)
assay value: 370 uM min-1 (mg of protein)-1
--
compound: O=c1[nH]c(=O)n([C@@H]2O[C@H](CO)[C@@H](O)[C@H]2O)c(CF)c1F
assay value: 57 uM min-1 (mg of protein)-1
--
compound: CCCc1cc(=O)[nH]c(=O)n1C1O[C@H](CO)[C@@H](O)[C@H]1O (stereo partly drawn)
assay value: 40 uM min-1 (mg of protein)-1
--
compound: CCc1cc(=O)[nH]c(=O)n1C1O[C@H](CO)[C@@H](O)[C@H]1O (stereo partly drawn)
assay value: 175 uM min-1 (mg of protein)-1

###

Entries and their measured Km follow.
# assay explanation: Catalytical constant (app Km)of the compound was evaluated at pH 6
# Assay type: ADME
# test settings: read-out: Km app
measured attribute: Km

compound: O=c1[nH]c(=O)n([C@@H]2O[C@H](CO)[C@@H](O)[C@H]2O)c(CF)c1F
measured attribute: Km
assay value: 979 µM
//
compound: O=c1[nH]c(=O)n([C@@H]2O[C@H](CO)[C@@H](O)[C@H]2O)cc1F [5-FLUOROURIDINE]
measured attribute: Km
assay value: 152 µM
//
compound: Cc1c(F)c(=O)[nH]c(=O)n1C1O[C@H](CO)[C@@H](O)[C@H]1O (some centres undefined)
measured attribute: Km
assay value: 1360 µM
//
compound: O=c1[nH]c(=O)n(C2O[C@H](CO)[C@@H](O)[C@H]2O)c(CO)c1F (some centres undefined)
measured attribute: Km
assay value: 4000 µM
